target-under-test: T1, human complement C3b protein (human, UniProt P01024 23-667; P01024 749-1663)
T1 construct: Purified plasma C3b (Complement Technology, Quidel); Depending on the assay it was captured by an anti-C3d antibody, coated, biotinylated or coupled to beads; also called human C3b; huC3b
T1 sequence (P01024 23-667 P314L, chain 1 of 2): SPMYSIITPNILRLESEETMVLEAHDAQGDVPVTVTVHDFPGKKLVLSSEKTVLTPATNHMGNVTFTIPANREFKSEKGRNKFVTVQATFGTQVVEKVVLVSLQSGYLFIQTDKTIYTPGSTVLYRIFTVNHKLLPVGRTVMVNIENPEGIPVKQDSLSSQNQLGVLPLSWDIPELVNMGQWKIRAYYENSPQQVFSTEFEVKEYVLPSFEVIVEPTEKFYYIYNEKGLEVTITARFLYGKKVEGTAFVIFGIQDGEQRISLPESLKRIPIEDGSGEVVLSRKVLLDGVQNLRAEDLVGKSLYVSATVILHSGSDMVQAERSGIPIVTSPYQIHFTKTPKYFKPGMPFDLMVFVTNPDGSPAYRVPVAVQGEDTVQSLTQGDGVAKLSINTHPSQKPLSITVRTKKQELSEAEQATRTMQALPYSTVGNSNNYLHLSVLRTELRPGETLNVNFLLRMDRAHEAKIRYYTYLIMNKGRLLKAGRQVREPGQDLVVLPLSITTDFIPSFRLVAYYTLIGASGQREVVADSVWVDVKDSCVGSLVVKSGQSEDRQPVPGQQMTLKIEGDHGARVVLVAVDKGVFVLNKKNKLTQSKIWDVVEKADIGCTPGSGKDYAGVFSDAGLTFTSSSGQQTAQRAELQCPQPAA
T1 sequence (P01024 749-1663, chain 2 of 2): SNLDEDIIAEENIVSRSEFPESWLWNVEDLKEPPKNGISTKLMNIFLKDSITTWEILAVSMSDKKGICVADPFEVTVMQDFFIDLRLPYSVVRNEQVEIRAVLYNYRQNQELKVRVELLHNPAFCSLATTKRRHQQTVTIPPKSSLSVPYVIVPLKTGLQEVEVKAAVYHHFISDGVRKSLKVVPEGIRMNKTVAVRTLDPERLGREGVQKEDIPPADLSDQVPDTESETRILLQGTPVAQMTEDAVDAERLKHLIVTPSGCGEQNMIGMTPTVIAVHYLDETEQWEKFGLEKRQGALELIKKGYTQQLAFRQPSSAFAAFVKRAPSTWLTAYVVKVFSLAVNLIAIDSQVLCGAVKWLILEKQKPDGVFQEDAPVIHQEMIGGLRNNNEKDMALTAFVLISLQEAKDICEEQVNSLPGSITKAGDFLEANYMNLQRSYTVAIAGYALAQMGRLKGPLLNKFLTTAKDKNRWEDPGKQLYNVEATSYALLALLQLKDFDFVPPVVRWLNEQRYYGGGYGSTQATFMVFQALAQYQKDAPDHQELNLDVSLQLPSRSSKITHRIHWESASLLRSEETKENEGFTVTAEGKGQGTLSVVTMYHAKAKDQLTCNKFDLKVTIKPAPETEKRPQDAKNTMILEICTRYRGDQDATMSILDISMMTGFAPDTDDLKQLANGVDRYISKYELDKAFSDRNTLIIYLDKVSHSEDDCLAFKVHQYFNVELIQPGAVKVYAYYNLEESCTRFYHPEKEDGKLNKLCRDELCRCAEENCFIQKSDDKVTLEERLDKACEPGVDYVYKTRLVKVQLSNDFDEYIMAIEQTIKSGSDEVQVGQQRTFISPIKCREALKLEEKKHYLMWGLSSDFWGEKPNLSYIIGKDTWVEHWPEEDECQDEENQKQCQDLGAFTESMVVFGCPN
test-name: SPR (Biacore T100), C3b captured by anti-C3d antibody, IgG as analyte, 1:1 model
Entries and their measured koff follow.
measurement-name: koff (s⁻¹)

>>> readout_number("MOR09610 IgG (antibody, V domains shown, Germlined human IgG1 with leucines 234 and 235 changed to alanines, kappa; also called antibody 9610) VH: EVQLVQSGAEVKKPGSSVKVSCKASGGTFSSYTFSWVRQAPGQGLEWMGNILPIFGDANYAQKFQGRVTITADESTSTAYMELSSLRSEDTAVYYCARNKGAFYYMSTYPSLDVWGQGTLVTVSS VL: DIQMTQSPSSLSASVGDRVTITCRASQNINYYLNWYQQKPGKAPKLLIYDAFSLQSGVPSRFSGSGSGTDFTLTISSLQPEDFATYYCQQSIAVPPFTFGQGTKVEIKR")
"4.02e-06"
>>> readout_number("MOR09675 IgG (antibody, V domains shown, Germlined human IgG1 with leucines 234 and 235 changed to alanines, kappa; also called antibody 9675) VH: EVQLVQSGAEVKKPGASVKVSCKASGYTFTGYYINWVRQAPGQGLEWMGIISPNQGTTGYAQKFQGRVTMTRDTSISTAYMELSSLRSEDTAVYYCARGNYDHLDYWGQGTLVTVSS VL: DIQMTQSPSSLSASVGDRVTITCRASQGISNYLNWYQQKPGKAPKLLIYDASTLQSGVPSRFSGSGSGTDFTLTISSLQPEDFATYYCQQDWHTLPVTFGQGTKVEIKR")
"1.02e-06"
